Where do these numbers come from? They come from ChEMBL document CHEMBL1201862.

# System: MDA-MB-435
# experiment: NCI tumour cell line growth inhibition, 48 h
Active and inactive are the calls of the source. Rule as the data show it: active = GI50 up to about 1.1 µM and inactive = higher.
quantity kind: GI50

Known GI50 results, listed for orientation:
>>> recorded_result("CC1=CC[C@H](C[C@H](C#CCCCC2OCCO2)O[Si](C(C)C)(C(C)C)C(C)C)C(=O)CC1")
"> 100 µM (inactive)"
>>> recorded_result("COc1nc(=O)n(C2CC(F)C(CO)O2)cc1C (stereo not given)")
"> 100 µM (inactive)"
>>> recorded_result("CC(C)NCCCNc1c2ccccc2nc2cccc([N+](=O)[O-])c12")
"0.0103 µM (active)"
>>> recorded_result("Cc1ccc(NC(=O)CC(=O)n2nc(C)c(/N=N/c3ccc(S(=O)(=O)CCOS(=O)(=O)O)cc3)c2C)cc1")
"> 100 µM (inactive)"

Next item in the queue.
Which GI50 is listed for CC12CCC(C(=O)OC1=O)C2(C)C (stereo not given) ?
> 100 µM (inactive)

---

# Tested on: OVCAR-5
# experiment: NCI tumour cell line growth inhibition, 48 h
Calls of active or inactive are those of the source. No stated cut-off is given here; in the data, active = GI50 up to about 1.1 µM and inactive = higher.
Your answer must be one of the following: T (active), F (inactive)

Example entries and their recorded answers appear below.
>>> discrete_label("CCOc1ccc(N/C(=C(/C(Cl)=C(/Cl)NC(C)(C)C)[N+](=O)[O-])n2nnc3ccccc32)cc1")
"F"
>>> discrete_label("CCc1n[nH]c(=O)n1/N=C(\\C)c1ccc([N+](=O)[O-])cc1")
"F"
>>> discrete_label("CCOC(=O)C(Sc1ccccc1)c1c(OC)cc(=O)oc1/C=[N+](/[O-])c1ccc(N(C)C)cc1 (stereo unspecified)")
"F"
>>> discrete_label("O=C1C(=O)N(c2ccc(Cl)c(Cl)c2)C(=O)C(=O)C1c1nc2ccccc2s1")
"F"

Please state the recorded outcome for this molecule: "CC1(C)OC[C@@H](O)[C@H](C#N)CO1"
F

Please state the recorded outcome for this molecule: CN1CCC(SC2Cc3cc(Cl)ccc3Sc3ccccc32)CC1 (stereo unspecified)
F

Please state the recorded outcome for this molecule: "Cc1cc2c(O)c(c1)CN(CC(=O)O)Cc1cc(C)cc(c1O)CN(CC(=O)O)Cc1cc(C)cc(c1O)CN(CC(=O)O)C2"
F

Please state the recorded outcome for this molecule: "COC(=O)N/N=C(\C)c1sc(-c2nc(C)c(/C(C)=N/NC(=O)OC)s2)nc1C"
F

Please state the recorded outcome for this molecule: CCOc1ccccc1NC(=O)CC1Sc2ccccc2NC1=O (stereo unspecified)
F

---

# Tested on: SNB-19
# experiment: NCI tumour cell line growth inhibition, 48 h
Calls of active or inactive are those of the source. No stated cut-off is given here; in the data, active = GI50 up to about 1.1 µM and inactive = higher.
Your answer must be one of the following: 1 = active, 0 = inactive

Example entries and their recorded answers appear below.
>>> discrete_label("COc1ccccc1/C=C1\\CCC(CNc2ccc(Cl)cc2)C1=O (configuration not stated)")
0
>>> discrete_label("O=c1oc2ccc(Cl)cc2cc1C1=CSC2=NCCN12")
0
>>> discrete_label("Cc1cc(Cl)ccc1NC(=O)CC1SC(Nc2ccccc2Cl)=NC1=O (configuration not stated)")
0

Please state the recorded outcome for this compound: "CC1=Cc2ccc(C)cc2C(=O)C1=O"
0

Please state the recorded outcome for this compound: "O=C(NC(Nc1ccc(F)cc1)(C(F)(F)F)C(F)(F)F)C(C(F)(F)F)C(F)(F)F"
0

---

# Test system: COLO 205
# experiment: NCI tumour cell line growth inhibition, 48 h
Active and inactive are the calls of the source. Cut-off read from the data, not from the text of the source: active = GI50 up to about 1.1 µM and inactive = higher.
Your answer must be one of the following: Yes (active), No (inactive)

>>> discrete_label("COc1cccc(C2CC(C)(O)Oc3cc4c(cc32)OCO4)c1 (stereo not drawn)")
"No"

Please state the recorded outcome for this compound: CCCCCCCCCCCCCCCCCCOCC(O)COP(=O)(O)OCC1OC(n2cc(F)c(=O)[nH]c2=O)CC1O (stereo not drawn)
No

Please state the recorded outcome for this compound: Cc1cccc2c1C(=O)C(C1OC(=O)c3ccccc31)C2 (stereo not drawn)
No

Please state the recorded outcome for this compound: ON1CCc2c([nH]c3ccccc23)C1c1ccc(Cl)cc1 (stereo not drawn)
No

---

# Tested on: Malme-3M
# experiment: NCI tumour cell line growth inhibition, 48 h
Activity calls are given as the source filed them. No stated cut-off is given here; in the data, active = GI50 up to about 1.1 µM and inactive = higher.
Your answer must be one of the following: active, inactive

Please state the recorded outcome for this compound: "Cc1nc(N)c(-c2ccccc2)s1"
inactive

---

# Tested on: NCI/ADR-RES
# experiment: NCI tumour cell line growth inhibition, 48 h
The source made the active and inactive calls. Rule as the data show it: active = GI50 up to about 1.1 µM and inactive = higher.
# GI50 values compiled below

>>> recorded_result("C(=C\\c1nccs1)/c1cccc(/C=C/c2nccs2)n1")
"> 50 µM (inactive)"
>>> recorded_result("NC(=O)NC(=O)c1cccc(NC(=O)CCl)c1")
"1.65 µM (inactive)"

Which GI50 is listed for CC(C)C(Br)CCC1=CCC(Br)(Br)C1 (stereo not given) ?
22.6 µM (inactive)

Which GI50 is listed for "O=[N+]([O-])c1ccc(/C=C(/c2ccc([N+](=O)[O-])o2)S(=O)(=O)c2ccccc2)o1" ?
18 µM (inactive)

Which GI50 is listed for "O=c1[nH][nH]c(=O)n1Cc1ccccc1Cn1c(=O)[nH][nH]c1=O" ?
> 100 µM (inactive)

---

# GI50 values compiled below
# System: CCRF-CEM
# experiment: NCI tumour cell line growth inhibition, 48 h
The source made the active and inactive calls. No stated cut-off is given here; in the data, active = GI50 up to about 1.1 µM and inactive = higher. Where a SMILES comes first, the peptide text is derived from it. Square brackets hold non-standard residues; d marks the D form. Peptide text beside a SMILES is read from it. The star is where a group is joined. Boc = CC(C)(C)OC(=O)*

>>> recorded_result("CC1(C)OC(C(=O)Nc2cc3c4ccccc4ccc3c3ccccc23)C(C(=O)N2CCCCC2)O1 (stereo not drawn)")
"0.537 µM (active)"
>>> recorded_result("C(=C\\c1nccs1)/c1cccc(/C=C/c2nccs2)n1")
"> 50 µM (inactive)"
>>> recorded_result("CCc1ccccc1NC(=O)C1=C(C)NC(C)=C(C(=O)Nc2ccccc2CC)C1c1ccccc1Cl")
"37.8 µM (inactive)"
>>> recorded_result("CC(C)C[C@H](NC(=O)[C@H](CC(C)C)NC(=O)[C@@H](Cc1c[nH]c2ccccc12)NC(=O)[C@H](Cc1ccccc1)NC(=O)[C@@H](Cc1c[nH]c2ccccc12)NC(=O)[C@H](CCC(N)=O)NC(=O)[C@@H](CCC(N)=O)NC(=O)[C@@H]1CCCN1C(=O)[C@@H](CCCCN)NC(=O)[C@H]1CCCN1C(=O)[C@H](N)CCCN=C(N)N)C(N)=O (H-[dR][dP][dK]P[dQ]Q[dW]F[dW]LL-NH2)")
"> 100 µM (inactive)"
>>> recorded_result("O=c1[nH][nH]c(=O)n1Cc1ccccc1Cn1c(=O)[nH][nH]c1=O")
"> 100 µM (inactive)"
>>> recorded_result("CCOC(=O)C(Sc1ccccc1)c1c(OC)cc(=O)oc1/C=[N+](/[O-])c1ccc(N(C)C)cc1 (stereo not drawn)")
"4.52 µM (inactive)"
>>> recorded_result("O=C(O)CCC(NC(=O)c1ccccc1)C(=O)O (stereo not drawn)")
"> 100 µM (inactive)"
>>> recorded_result("N#CC1(Cc2ccc(N)cc2)c2ccccc2C=CN1C(=O)c1ccccc1 (stereo not drawn)")
"29 µM (inactive)"
>>> recorded_result("N#Cc1c(/C=C/c2ccccc2)c2c([nH]c1=S)CCCCC2")
"> 100 µM (inactive)"
>>> recorded_result("CCC(=O)/C(=C\\I)c1ccccc1")
"2.74 µM (inactive)"

Which GI50 is listed for "CCS(=O)(=O)Nc1ccc(Nc2c3ccccc3nc3ccccc23)c(OC)c1" ?
0.0485 µM (active)

Which GI50 is listed for CSCCC(NC(=O)C(CC(C)C)NC(=O)C1CCCN1C(=O)C(Cc1ccccc1)NC(=O)C(Cc1ccccc1)NC(=O)C(CCC(=O)O)NC(=O)OC(C)(C)C)C(N)=O (stereo not drawn) (Boc-EFFPLM-NH2; configuration not given here) ?
> 100 µM (inactive)

Which GI50 is listed for "N#CCN1C(=O)c2cccc3cc([N+](=O)[O-])cc(c23)C1=O" ?
24.7 µM (inactive)

Which GI50 is listed for "Nc1cc(O)c2c(c1O)C(=O)C=CC2=O" ?
2.19 µM (inactive)

Which GI50 is listed for "C[C@H](CCC(=O)O)[C@H]1CC[C@H]2[C@@H]3[C@@H](O)C[C@@H]4C[C@H](O)CC[C@]4(C)[C@H]3CC[C@]12C" ?
> 100 µM (inactive)

Which GI50 is listed for "O=S(=O)(O)CCCc1cccc2ccccc12" ?
> 100 µM (inactive)

Which GI50 is listed for COC(=O)C(CC1=C(O)Nc2ccccc2N1)/C(=N/NC(N)=O)C(=O)Nc1ccccc1C (stereo not drawn) ?
21.7 µM (inactive)

Which GI50 is listed for CNC1C(O)C(OC2C(N)CC(N)C(OC3OC(C(C)O)C(O)C(O)C3N)C2O)OCC1(C)O (stereo not drawn) ?
> 100 µM (inactive)
